# system-name: Indoleamine 2,3-dioxygenase 1 (Homo sapiens, UniProt P14902)
# Sequence (P14902 whole entry): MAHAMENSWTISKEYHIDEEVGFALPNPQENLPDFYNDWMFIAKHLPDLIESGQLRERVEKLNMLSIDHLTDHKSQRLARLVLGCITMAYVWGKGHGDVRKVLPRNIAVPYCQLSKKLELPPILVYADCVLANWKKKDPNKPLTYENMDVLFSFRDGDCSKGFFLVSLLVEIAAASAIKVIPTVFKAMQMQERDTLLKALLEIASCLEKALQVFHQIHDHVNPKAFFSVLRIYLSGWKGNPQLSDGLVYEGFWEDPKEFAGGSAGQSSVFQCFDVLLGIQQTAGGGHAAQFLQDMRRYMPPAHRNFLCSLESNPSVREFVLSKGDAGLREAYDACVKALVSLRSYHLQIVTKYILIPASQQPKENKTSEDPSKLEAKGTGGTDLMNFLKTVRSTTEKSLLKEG
experimental-endpoint: IC50 (µM)

(I) CC1(C)C=CC2=C(O1)C(=O)c1cc(O)ccc1C2=O
(II) CC1(C)OC2=C(C(=O)c3ccccc3C2=O)C2OC21 (configuration not stated)
IC50 comparison. Which is larger, I or II ? Choose, then provide that item's label.
II
